experiment: Displacement of [3H]-QNB from Wistar rat brain membrane mAChR assessed as inhibition constant incubated for 30 mins by radioligand competitive binding assay; assay type: cell membranes
MEASUREMENT LABEL: Ki (µM)

smiles_string=CN1CCN(CC(=O)Nc2ccccc2/N=N\c2cccnc2)CC1.Cl.Cl value_reported=7
smiles_string=CN1CCN(CC(=O)Nc2ccccc2/N=N\c2ccccc2)CC1.Cl.Cl value_reported=1.5
smiles_string=CN1CCN(CC(=O)Nc2ccccc2/N=N/c2ccc(N(C)C)cc2)CC1 value_reported=5.3
smiles_string=CN1CCN(CC(=O)Nc2ccccc2/N=N\c2ccc(N(C)C)cc2)CC1 value_reported=5.3
smiles_string=CN1CCN(CC(=O)Nc2ccccc2/N=N/c2ccccc2)CC1.Cl.Cl value_reported=1.7
smiles_string=CN1CCN(CC(=O)Nc2ccccc2/N=N/c2cccnc2)CC1.Cl.Cl value_reported=6.4

###

Target: Muscarinic acetylcholine receptor M1 (Homo sapiens, UniProt P11229)
Sequence (P11229 whole entry): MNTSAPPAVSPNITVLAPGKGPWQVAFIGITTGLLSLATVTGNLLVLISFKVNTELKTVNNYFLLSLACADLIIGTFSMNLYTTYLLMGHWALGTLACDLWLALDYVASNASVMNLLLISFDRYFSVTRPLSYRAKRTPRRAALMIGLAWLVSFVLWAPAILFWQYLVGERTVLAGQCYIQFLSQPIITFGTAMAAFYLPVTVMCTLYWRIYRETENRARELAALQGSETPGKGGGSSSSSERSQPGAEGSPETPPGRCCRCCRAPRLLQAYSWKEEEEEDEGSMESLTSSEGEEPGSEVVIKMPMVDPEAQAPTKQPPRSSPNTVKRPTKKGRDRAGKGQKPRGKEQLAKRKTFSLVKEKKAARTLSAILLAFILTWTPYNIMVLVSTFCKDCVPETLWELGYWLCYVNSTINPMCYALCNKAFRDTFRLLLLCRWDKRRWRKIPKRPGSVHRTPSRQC
Test: Displacement of [3H]-pirenzepine from human recombinant M1 receptor expressed in CHO cells incubated for 60 mins by topcount scintillation counter method
pIC50: −log10 of the molar value.
MEASUREMENT LABEL: pIC50

smiles_string=CN1CCN(CC(=O)Nc2ccccc2/N=N\c2ccccc2)CC1.Cl.Cl measurement_label=pIC50 value_reported=5.72

###

test: Thermal stability of the compound assessed as half life; assay type: physicochemical
MEASUREMENT LABEL: half-life (h)

smiles_string=CN1CCN(CC(=O)Nc2ccccc2/N=N/c2cccnc2)CC1.Cl.Cl value_reported=1.18
smiles_string=CN1CCN(CC(=O)Nc2ccccc2/N=N/c2ccccc2)CC1.Cl.Cl value_reported=3.03
smiles_string=CN1CCN(CC(=O)Nc2ccccc2/N=N\c2ccccc2)CC1.Cl.Cl value_reported=3.03
smiles_string=CN1CCN(CC(=O)Nc2ccccc2/N=N\c2cccnc2)CC1.Cl.Cl value_reported=1.18

Data provenance is ChEMBL document CHEMBL5149993.
